Please respond with reported pIC50 for every item in the list.
- target-entity: SULT1A1 (Homo sapiens, UniProt P50225)
- Construct: recombinant, purchased from BD Gentest
- Sequence (P50225 whole entry): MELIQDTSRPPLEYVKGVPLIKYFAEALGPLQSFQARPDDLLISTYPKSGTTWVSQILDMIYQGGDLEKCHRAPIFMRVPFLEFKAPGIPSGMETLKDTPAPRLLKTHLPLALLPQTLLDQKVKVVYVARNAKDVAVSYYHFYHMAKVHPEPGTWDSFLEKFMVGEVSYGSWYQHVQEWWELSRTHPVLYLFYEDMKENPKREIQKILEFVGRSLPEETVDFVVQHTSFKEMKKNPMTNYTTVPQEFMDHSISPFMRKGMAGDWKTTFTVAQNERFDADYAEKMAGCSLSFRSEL
- test-details: inhibition of 4-nitrophenol sulfation, UPLC-UV
- Assay type: biochemical
By convention, pIC50 is the negative base-10 log of a molar concentration.

[Q] Query (molecule): CCCCCCOC(=O)c1ccccc1C(=O)O ; field requested: pIC50
[A] 4.77

[Q] Query (molecule): O=C(O)c1ccccc1C(=O)OCc1ccccc1 ; field requested: pIC50
[A] 6.60

[Q] Query (molecule): CCCCC(CC)COC(=O)c1ccccc1C(=O)O (stereo not shown) ; field requested: pIC50
[A] 5.63

[Q] Query (molecule): CCCCCCCCOC(=O)c1ccccc1C(=O)O ; field requested: pIC50
[A] 5.25
